Source listed as patent US20250082624A1.

assay.protocol: Phase 1b MAD plasma pharmacokinetics, non-compartmental analysis
Assay type: in vivo, human
condition.summary: human, plasma, oral, 90 mg, high dose (90 mg), AD participants; read-out: Cmax
measurement.type: Cmax (ng/mL)
# value in ng/mL; strip the unit string

Q) Please supply the value of reported Cmax for the item CC1(Cc2ccccc2)COc2cc(C(=O)N3CCCCC3)ccc21 (stereo not shown) [NTRX-07]
A) 477

* * *

assay.protocol: Phase 1b MAD plasma pharmacokinetics, non-compartmental analysis
Type: in vivo, human
condition.summary: human, plasma, po, 10 mg, Table 19 (interim): Cohort A, 40 mg SDD (10 mg NTRX-07) QD oral, Day 1; mean ± S.D.; read-out: Tmax
measurement.type: Tmax
Write your answer as a measured quantity: the number, then the unit.

Q) Please supply the value of reported Tmax for the item CC1(Cc2ccccc2)COc2cc(C(=O)N3CCCCC3)ccc21 (stereo not shown)
A) 42 min

* * *

assay.protocol: Phase 1b MAD plasma pharmacokinetics, non-compartmental analysis
Format: in vivo, human
condition.summary: human, plasma, po, 90 mg, Table 14: Cohort C, 90 mg QD oral, Day 1; mean ± S.D.; read-out: Vd/F
measurement.type: Vd/F (L)
# value in L; strip the unit string

Q) Please supply the value of reported Vd/F for the item CC1(Cc2ccccc2)COc2cc(C(=O)N3CCCCC3)ccc21 (stereo not shown) [NTRX-07]
A) 337

* * *

assay.protocol: Phase 1b MAD plasma pharmacokinetics, non-compartmental analysis
Format: in vivo, human
condition.summary: human, plasma, po, 30 mg, Table 12: Cohort B, 30 mg QD oral, Day 7; mean ± S.D.; read-out: Vd/F
Description: Methods: All study procedures were approved by the IRB, and informed consent was obtained. […] Subjects were assessed for changes in vital signs, including maneuvers to induce lightheadedness, electrocardiograms, 24-hour electroencephalograms (EEG), and safety laboratory studies. […] Raw bioanalytical data were received from Nuvisan following analysis of plasma samples from each of four cohorts. PK parameters were calculated by noncompartmental analysis using standard equations. […]
measurement.type: Vd/F (L)
# value in L; strip the unit string

Q) Please supply the value of reported Vd/F for the item CC1(Cc2ccccc2)COc2cc(C(=O)N3CCCCC3)ccc21 (stereo not shown)
A) 391

* * *

assay.protocol: Phase 1b MAD plasma pharmacokinetics, non-compartmental analysis
Type: in vivo, human
condition.summary: human, plasma, po, 10 mg, Table 10: Cohort A, 10 mg QD oral, Day 7; mean ± S.D.; read-out: Vd/F
measurement.type: Vd/F (L)
# value in L; strip the unit string

Q) Please supply the value of reported Vd/F for the item CC1(Cc2ccccc2)COc2cc(C(=O)N3CCCCC3)ccc21 (stereo not shown)
A) 307

* * *

assay.protocol: Phase 1b MAD plasma pharmacokinetics, non-compartmental analysis
Type: in vivo, human
condition.summary: human, plasma, po, 90 mg, Table 17: Cohort D (AD), 90 mg QD oral, Day 7; mean ± S.D.; read-out: Tmax
measurement.type: Tmax (h)
# value in h; strip the unit string

Q) Please supply the value of reported Tmax for the item CC1(Cc2ccccc2)COc2cc(C(=O)N3CCCCC3)ccc21 (stereo not shown) [NTRX-07]
A) 1.1

* * *

assay.protocol: Phase 1b MAD plasma pharmacokinetics, non-compartmental analysis
Assay type: in vivo, human
condition.summary: human, plasma, po, 120 mg, Table 25 (interim): Cohort B, 120 mg SDD (30 mg NTRX-07) QD oral, Day 7; individual subjects; read-out: Tmax
measurement.type: Tmax (min)
# value in min; strip the unit string

Q) Please supply the value of reported Tmax for the item CC1(Cc2ccccc2)COc2cc(C(=O)N3CCCCC3)ccc21 (stereo not shown)
A) 30

* * *

assay.protocol: Phase 1b MAD plasma pharmacokinetics, non-compartmental analysis
Type: in vivo, human
condition.summary: human, plasma, po, 360 mg SDD, Table 29 (interim): Cohort C, 360 mg SDD (90 mg NTRX-07) QD oral, Day 1; mean ± S.D.; read-out: Vd/F
measurement.type: Vd/F (L)
# value in L; strip the unit string

Q) Please supply the value of reported Vd/F for the item CC1(Cc2ccccc2)COc2cc(C(=O)N3CCCCC3)ccc21 (stereo not shown)
A) 1300

* * *

assay.protocol: Phase 1b MAD plasma pharmacokinetics, non-compartmental analysis
Type: in vivo, human
condition.summary: human, plasma, po, 30 mg, Table 12: Cohort B, 30 mg QD oral, Day 7; mean ± S.D.; read-out: AUClast
measurement.type: AUC(0-t) (ng·h/mL)
# value in ng·h/mL; strip the unit string

Q) Please supply the value of reported AUC(0-t) for the item CC1(Cc2ccccc2)COc2cc(C(=O)N3CCCCC3)ccc21 (stereo not shown)
A) 236

* * *

assay.protocol: Phase 1b MAD plasma pharmacokinetics, non-compartmental analysis
Assay type: in vivo, human
condition.summary: human, plasma, po, 360 mg SDD, Table 34 (interim): Cohort D (AD), 360 mg SDD (90 mg NTRX-07) QD oral, Day 1; mean ± S.D.; read-out: Cmax
measurement.type: Cmax
Write your answer as a measured quantity: the number, then the unit.

Q) Please supply the value of reported Cmax for the item CC1(Cc2ccccc2)COc2cc(C(=O)N3CCCCC3)ccc21 (stereo not shown)
A) 478 ng/mL

* * *

assay.protocol: Phase 1b MAD plasma pharmacokinetics, non-compartmental analysis
Format: in vivo, human
condition.summary: human, plasma, po, 360 mg SDD, Table 34 (interim): Cohort D (AD), 360 mg SDD (90 mg NTRX-07) QD oral, Day 1; mean ± S.D.; read-out: Vd/F
measurement.type: Vd/F
Write your answer as a measured quantity: the number, then the unit.

Q) Please supply the value of reported Vd/F for the item CC1(Cc2ccccc2)COc2cc(C(=O)N3CCCCC3)ccc21 (stereo not shown)
A) 845 L

* * *

assay.protocol: Phase 1b MAD plasma pharmacokinetics, non-compartmental analysis
Type: in vivo, human
condition.summary: human, plasma, po, 30 mg, Table 13: Cohort B Fed, 30 mg oral, fed state; mean ± S.D.; read-out: Vd/F
measurement.type: Vd/F (L)
# value in L; strip the unit string

Q) Please supply the value of reported Vd/F for the item CC1(Cc2ccccc2)COc2cc(C(=O)N3CCCCC3)ccc21 (stereo not shown) [NTRX-07]
A) 699

* * *

assay.protocol: Phase 1b MAD plasma pharmacokinetics, non-compartmental analysis
Assay type: in vivo, human
condition.summary: human, plasma, po, 30 mg, Cohort B healthy, 30 mg QD oral, Day 1; mean ± SD; read-out: Average of Vd/F
measurement.type: Vd/F
Write your answer as a measured quantity: the number, then the unit.

Q) Please supply the value of reported Vd/F for the item CC1(Cc2ccccc2)COc2cc(C(=O)N3CCCCC3)ccc21 (stereo not shown)
A) 349 L

* * *

assay.protocol: Phase 1b MAD plasma pharmacokinetics, non-compartmental analysis
Type: in vivo, human
condition.summary: human, plasma, po, 90 mg, Cohort C healthy, 90 mg QD oral, Day 7; mean ± SD; read-out: Average of Cmax
measurement.type: Cmax

Q) Please supply the value of reported Cmax for the item CC1(Cc2ccccc2)COc2cc(C(=O)N3CCCCC3)ccc21 (stereo not shown)
A) 189 ng/mL

* * *

assay.protocol: Phase 1b MAD plasma pharmacokinetics, non-compartmental analysis
Format: in vivo, human
condition.summary: human, plasma, po, 90 mg, Table 17: Cohort D (AD), 90 mg QD oral, Day 7; individual subjects
measurement.type: AUC over 24 h (AUC0-24) (ng·h/mL)
# value in ng·h/mL; strip the unit string

Q) Please supply the value of reported AUC over 24 h (AUC0-24) for the item CC1(Cc2ccccc2)COc2cc(C(=O)N3CCCCC3)ccc21 (stereo not shown)
A) 623

* * *

assay.protocol: Phase 1b MAD plasma pharmacokinetics, non-compartmental analysis
Format: in vivo, human
condition.summary: human, plasma, po, 90 mg, Cohort D AD patients, 90 mg QD oral, Day 1; mean ± SD; read-out: Average of Cmax
Protocol: Methods: All study procedures were approved by the IRB, and informed consent was obtained. […] Subjects were assessed for changes in vital signs, including maneuvers to induce lightheadedness, electrocardiograms, 24-hour electroencephalograms (EEG), and safety laboratory studies. […] Raw bioanalytical data were received from Nuvisan following analysis of plasma samples from each of four cohorts. PK parameters were calculated by noncompartmental analysis using standard equations. […]
measurement.type: Cmax (ng/mL)
# value in ng/mL; strip the unit string

Q) Please supply the value of reported Cmax for the item CC1(Cc2ccccc2)COc2cc(C(=O)N3CCCCC3)ccc21 (stereo not shown)
A) 478

* * *

assay.protocol: Phase 1b MAD plasma pharmacokinetics, non-compartmental analysis
Type: in vivo, human
condition.summary: human, plasma, po, 30 mg, Table 11: Cohort B, 30 mg QD oral, Day 1; mean ± S.D.; read-out: Tmax
measurement.type: Tmax (min)
# value in min; strip the unit string

Q) Please supply the value of reported Tmax for the item CC1(Cc2ccccc2)COc2cc(C(=O)N3CCCCC3)ccc21 (stereo not shown) [NTRX-07]
A) 54

* * *

assay.protocol: Phase 1b MAD plasma pharmacokinetics, non-compartmental analysis
Format: in vivo, human
condition.summary: human, plasma, po, 90 mg, Table 14: Cohort C, 90 mg QD oral, Day 1; mean ± S.D.; read-out: Tmax
measurement.type: Tmax (h)
# value in h; strip the unit string

Q) Please supply the value of reported Tmax for the item CC1(Cc2ccccc2)COc2cc(C(=O)N3CCCCC3)ccc21 (stereo not shown)
A) 2.3
